- TARGET: T1, biotinylated avi-tagged TβRII (UniProt P37173 23-166, a single biotin on the avi tag (BirA))
- T1 construct: also called TβRII (SPR surface)
- T1 sequence (P37173 23-166): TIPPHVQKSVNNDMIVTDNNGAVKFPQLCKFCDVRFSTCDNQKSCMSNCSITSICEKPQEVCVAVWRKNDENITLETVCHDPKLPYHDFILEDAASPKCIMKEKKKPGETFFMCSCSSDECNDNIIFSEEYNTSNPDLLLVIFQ
- METHOD DESCRIPTION: SPR; biotinylated avi-tagged TβRII captured (50-150 RU) on a neutravidin-coated CM-5 chip, TGM-D3 and its variants injected; 25 mM Hepes, pH 7.4, 150 mM NaCl, 0.05% surfactant P20, 100 µl/min; 1:1 kinetic fit of duplicate or triplicate injection series
- PROTOCOL CONDITIONS: both partners purified
Assign pKd to each entry below.
Numbers only, as −log10 of the molar value.

# count of solved cases: 3
BINDER | VALUE
TGM-D3 (domain or fragment, also called WT TGM-D3; domain 3 of H. polygyrus TGF-β mimic; not shown: Thioredoxin, N-terminal, cleaved; His6, N-terminal, cleaved) GSGTGCPPLPDDGIVFYEYYGYAGDRHTVGPVVTKDSSGNYPSPTHARRRCRALSQEADPGEFVAICYKSGTTGESHWEYYKNIGKCPDP | 5.80
TGM-D3 F235A (domain or fragment, also called Phe235Ala; not shown: Thioredoxin, N-terminal, cleaved; His6, N-terminal, cleaved) GSGTGCPPLPDDGIVFYEYYGYAGDRHTVGPVVTKDSSGNYPSPTHARRRCRALSQEADPGEAVAICYKSGTTGESHWEYYKNIGKCPDP | 5.39
TGM-D3 Y252A (domain or fragment, not shown: Thioredoxin, N-terminal, cleaved; His6, N-terminal, cleaved) GSGTGCPPLPDDGIVFYEYYGYAGDRHTVGPVVTKDSSGNYPSPTHARRRCRALSQEADPGEFVAICYKSGTTGESHWEAYKNIGKCPDP | 4.68

Need pKd for each of these binders.
1. TGM-D3 I256A (domain or fragment, also called Ile256Ala; not shown: Thioredoxin, N-terminal, cleaved; His6, N-terminal, cleaved) GSGTGCPPLPDDGIVFYEYYGYAGDRHTVGPVVTKDSSGNYPSPTHARRRCRALSQEADPGEFVAICYKSGTTGESHWEYYKNAGKCPDP
2. TGM-D3 H199A (domain or fragment, also called His199Ala; not shown: Thioredoxin, N-terminal, cleaved; His6, N-terminal, cleaved) GSGTGCPPLPDDGIVFYEYYGYAGDRATVGPVVTKDSSGNYPSPTHARRRCRALSQEADPGEFVAICYKSGTTGESHWEYYKNIGKCPDP
3. TGM-D3 K258A (domain or fragment, also called Lys258Ala; not shown: Thioredoxin, N-terminal, cleaved; His6, N-terminal, cleaved) GSGTGCPPLPDDGIVFYEYYGYAGDRHTVGPVVTKDSSGNYPSPTHARRRCRALSQEADPGEFVAICYKSGTTGESHWEYYKNIGACPDP

[5.80, 5.52, 5.57]
